assay-remarks: Population pharmacokinetic analysis of INH clearance in tuberculosis patients, by predicted NAT2 acetylator type
run-parameters: human, plasma, INH clearance rate (median), predicted intermediate acetylators; 48 pulmonary TB patients
property-measured: clearance

Using the record for NNC(=O)c1ccncc1 [INH, isoniazid] , report its clearance.
683 mL/min

---

assay-remarks: Population pharmacokinetic analysis of INH clearance in tuberculosis patients, by predicted NAT2 acetylator type
run-parameters: human, plasma, INH clearance rate (median), predicted fast (rapid) acetylators; 48 pulmonary TB patients
property-measured: clearance (mL/min)
State the answer as a number, implicitly in mL/min.

Look at this compound and give its reported clearance. `NNC(=O)c1ccncc1`
778

---

assay-remarks: Population pharmacokinetic analysis of INH clearance in tuberculosis patients, by predicted NAT2 acetylator type
run-parameters: human, plasma, INH clearance rate (median), predicted slow acetylators; 48 pulmonary TB patients, standardized weight-based dosing
property-measured: clearance (mL/min)
Express the result in mL/min but write the number alone.

Tell me the measured clearance of NNC(=O)c1ccncc1 [INH, isoniazid] , please.
322
